- test-target: Peptidylglycine monooxygenase (PHM) (Rattus norvegicus)
- Sequence (P14925 42-356): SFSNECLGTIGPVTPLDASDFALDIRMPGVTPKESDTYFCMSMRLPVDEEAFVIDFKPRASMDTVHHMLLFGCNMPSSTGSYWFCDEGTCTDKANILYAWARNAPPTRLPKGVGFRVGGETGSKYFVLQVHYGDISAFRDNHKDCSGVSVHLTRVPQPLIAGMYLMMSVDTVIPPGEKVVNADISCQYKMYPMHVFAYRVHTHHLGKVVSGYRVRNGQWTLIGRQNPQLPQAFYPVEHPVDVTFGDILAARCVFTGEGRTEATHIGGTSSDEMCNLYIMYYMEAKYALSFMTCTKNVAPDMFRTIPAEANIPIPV

[
  {
    "compound": "O=C1O[C@H]([C@@H](O)CO)C(O)=C1O [ascorbate]",
    "Kd, µM": 117
  }
]
